# TARGET UNDER TEST: recombinant human-Dectin-1 mouse Fc fusion (human) (UniProt Q9BXN2)
# PROTOCOL SUMMARY: Octet BLI, response at X
Catalogue of X = 470 readings, one per entry.
Lab note: record the figure alone, no unit after it.

Below, 6 binders whose answers are already recorded.
Enquiry: May I ask what X = 470 has been recorded for 2M24A.1.8 hFab (Fab, V domains shown) VH: QVQLVQSGAEVKKPGASVKVSCKSSGYTFTDYYIHWVRQAPGQGLEWMGWINPNSGDTNYAQKFQGRITMTRDTSISTAYLELSRLRSDDTAVFYCARASGSYSFGYWGQGTLVTVSS VL: DIQMTQSPSSVSASVGDRVTITCRASQGISSWLAWYQQKPGKAPKLLIFGASSLQSGVPSRFSGSGSGTDFTLTVSSLQPEDFATYYCQQAFSFPFTFGPGTKVDIE ?
Return: 0

Enquiry: Quick one: 2M24A.1.14 hFab (Fab, V domains shown) VH: QVQLVQSGAEVKKPGASVKVSCKSSGYTFTDYYIHWVRQAPGQGLEWMGWINPNSGDTNYAQKFQGRITMTRDTSISTAYLELSRLRSDDTAVFYCARNSGSASFGYWGQGTLVTVSS VL: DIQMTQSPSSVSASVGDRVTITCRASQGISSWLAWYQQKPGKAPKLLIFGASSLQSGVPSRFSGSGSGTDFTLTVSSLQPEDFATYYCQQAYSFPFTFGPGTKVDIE
Return: 0

Enquiry: Also, 2M24A.1.9 hFab (Fab, V domains shown) VH: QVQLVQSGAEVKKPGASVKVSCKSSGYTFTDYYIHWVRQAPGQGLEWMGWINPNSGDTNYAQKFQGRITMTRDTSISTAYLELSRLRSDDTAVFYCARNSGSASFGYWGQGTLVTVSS VL: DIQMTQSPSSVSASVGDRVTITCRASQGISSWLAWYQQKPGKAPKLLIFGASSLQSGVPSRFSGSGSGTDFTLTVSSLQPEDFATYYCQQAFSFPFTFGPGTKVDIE please.
Return: 0

Enquiry: One more binder: 2M24A.1.6 hFab (Fab, V domains shown) VH: QVQLVQSGAEVKKPGASVKVSCKSSGYTFTAYYIHWVRQAPGQGLEWMGWINPNSGDTNYAQKFQGRITMTRDTSISTAYLELSRLRSDDTAVFYCARNSGSYSFGYWGQGTLVTVSS VL: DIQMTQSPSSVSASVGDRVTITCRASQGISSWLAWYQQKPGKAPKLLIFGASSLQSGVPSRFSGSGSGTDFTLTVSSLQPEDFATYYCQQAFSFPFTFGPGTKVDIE
Return: 0.39

Enquiry: And the next one, 2M24A.1.12 hFab (Fab, V domains shown) VH: QVQLVQSGAEVKKPGASVKVSCKSSGYTFTDYYIHWVRQAPGQGLEWMGWINPNSGATNYAQKFQGRITMTRDTSISTAYLELSRLRSDDTAVFYCARNSGSYSFGYWGQGTLVTVSS VL: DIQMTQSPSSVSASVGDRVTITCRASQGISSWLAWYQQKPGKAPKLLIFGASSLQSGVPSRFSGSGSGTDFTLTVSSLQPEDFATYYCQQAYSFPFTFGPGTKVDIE ?
Return: 0.399

Enquiry: Cool, now 2M24A.1.7 hFab (Fab, V domains shown) VH: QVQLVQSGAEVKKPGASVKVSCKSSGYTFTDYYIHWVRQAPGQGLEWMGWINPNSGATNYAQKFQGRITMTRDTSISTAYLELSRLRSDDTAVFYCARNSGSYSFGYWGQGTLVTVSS VL: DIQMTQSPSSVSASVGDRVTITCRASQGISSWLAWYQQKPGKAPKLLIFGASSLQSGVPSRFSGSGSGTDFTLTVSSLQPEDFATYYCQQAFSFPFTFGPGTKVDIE
Return: 0.398

The record that follows has no X = 470 shown yet.
Enquiry: Request the reported X = 470 associated with 2M24A.1.4 hFab (Fab, V domains shown) VH: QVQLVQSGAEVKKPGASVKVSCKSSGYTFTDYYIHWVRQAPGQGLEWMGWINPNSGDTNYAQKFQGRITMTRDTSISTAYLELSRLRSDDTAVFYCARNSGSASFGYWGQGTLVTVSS VL: DIQMTQSPSSVSASVGDRVTITCRASQGISSWLAWYQQKPGKAPKLLIFGASSLQSGVPSRFSGSGSGTDFTLTVSSLQPEDFATYYCQQAASFPFTFGPGTKVDIE
Return: 0
